Where these numbers come from: patent US20050267182A1

test system: MV4,11 cells; assay: FLT3 assay using MV4,11 cells (cellular proliferation, MTS); type: cell-based, human; details: cell assay code CS0001
Metric name: Cell Assay: CS0001:IC50

Reference set, count: 5
Smiles repr	Measured
CC(C)(C)c1cc(NC(=O)Nc2ccc(OCc3ccc(Cl)cc3)cc2)no1	+ + + +
CC(C)(C)c1cc(NC(=O)Nc2ccc(OCc3ccc4ccccc4c3)cc2)no1	+ + + +
Cc1cnc(C(=O)Nc2ccc(NC(=O)Nc3cc(C(C)(C)C)on3)cc2)c(C(=O)O)n1	+ + + +
CC(C)(C)c1cc(NC(=O)Nc2ccc(OCCc3ccccn3)cc2)no1	+ + +
CC(C)(C)c1cc(NC(=O)Nc2ccc(OCc3ccc(C(=O)c4ccccc4)cc3)cc2)no1	+ + +

Query: What Cell Assay: CS0001:IC50 value was documented for this molecule, CC(C)(C)c1cc(NC(=O)Nc2ccc(OCCc3ccc(F)cc3)cc2)no1 ?
Reply: + + +

Query: What Cell Assay: CS0001:IC50 value was documented for this molecule, Cc1nc(-c2ccccc2)sc1C(=O)Nc1ccc(NC(=O)Nc2cc(C(C)(C)C)on2)cc1 ?
Reply: + + + +

Query: What Cell Assay: CS0001:IC50 value was documented for this molecule, CC(C)(C)c1cc(NC(=O)Nc2ccc(NC(=O)c3cccc(O)n3)cc2)no1 ?
Reply: + + + +

* * *

Target: FLT3 (Homo sapiens, UniProt P36888)
Construct: FLT3(DKIN); made in house
Sequence (P36888 610-943 limits assumed): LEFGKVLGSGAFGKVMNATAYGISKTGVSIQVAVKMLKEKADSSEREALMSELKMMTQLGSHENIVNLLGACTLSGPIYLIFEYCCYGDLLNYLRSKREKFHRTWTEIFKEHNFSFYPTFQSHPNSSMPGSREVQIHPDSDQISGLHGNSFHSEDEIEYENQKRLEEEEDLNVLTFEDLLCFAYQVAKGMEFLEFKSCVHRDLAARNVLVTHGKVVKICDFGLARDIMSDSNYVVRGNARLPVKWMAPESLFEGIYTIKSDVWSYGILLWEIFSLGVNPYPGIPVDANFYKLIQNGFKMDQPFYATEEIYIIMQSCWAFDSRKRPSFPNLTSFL
Test: Binding constant (Kd) measurement, phage-displayed kinase competition binding assay
Conditions: FLT3(DKIN) construct
Metric name: Binding Assay: FLT3(DKIN)

Reference set, count: 5
Smiles repr	Measured
Cc1ccc(NC(=O)c2ccc(NC(=O)Nc3cc(C(C)(C)C)on3)cc2)cc1	+ + + +
Cc1nn(C)c(Cl)c1C(=O)Nc1ccc(NC(=O)Nc2cc(C(C)(C)C)on2)cc1	+ + + +
CC(C)(C)c1cc(NC(=O)Nc2ccc(-c3nc(-c4ccc(Cl)cc4)no3)cc2)no1	+ + + +
CC(C)(C)c1cc(NC(=O)Nc2ccc(OC(F)(F)F)cc2)on1	+ +
Cn1nc(C(C)(C)C)cc1NC(=O)Nc1ccc(Cl)cc1	+ + +

Query: What Binding Assay: FLT3(DKIN) value was documented for this compound, Cc1ccc(NC(=O)Nc2cc(C(C)(C)C)on2)cc1 ?
Reply: + + + +

Query: What Binding Assay: FLT3(DKIN) value was documented for this compound, CC(C)(C)c1cc(NC(=O)Nc2ccc(C(=O)NCCO)cc2)no1 ?
Reply: + + +

Query: What Binding Assay: FLT3(DKIN) value was documented for this compound, CC(C)(C)c1cc(NC(=O)Nc2ccc(F)cc2)no1 ?
Reply: + + +

Query: What Binding Assay: FLT3(DKIN) value was documented for this compound, CC(C)(C)c1cc(NC(=O)Nc2ccc(Cl)c(C(F)(F)F)c2)no1 ?
Reply: + + +
